Measured protein stability index values are reported for all entries that follow.
B1: LOXL2 (parent)
chain: RLLRFSSQIHNNGQSDFRPKNGRH

Variants of: B1
Experiment Notes: protein stability index of a GFP-peptide fusion (GPS, HEK-293T) (PSI 1-6); higher = more stable;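 note: lentivirally expressed fusions sorted by FACS into six bins by GFP to DsRed ratio, PSI derived from sequencing read proportions per bin multiplied by bin number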
Cond: c terminus: a fixed tail appended
Outcome Measure: protein stability index

| Residue Sequence | Result Value |
| --- | --- |
| RLLRFSSQIHVNGQSDFRPKNGRH [N11V] | 4.07 |
| RLRRFSSQIHNNGQSDFRPKNGRH [L3R] | 3.81 |
| RLLRFSSQIHNNGQCDFRPKNGRH [S15C] | 2.65 |
| RLLRFSSQIHNNVQSDFRPKNGRH [G13V] | 2.24 |
| RLLRTSSQIHNNGQSDFRPKNGRH [F5T] | 3.99 |
| RLLEFSSQIHNNGQSDFRPKNGRH [R4E] | 2.87 |
| WLLRFSSQIHNNGQSDFRPKNGRH [R1W] | 1.65 |
| RLLRFSSQIHHNGQSDFRPKNGRH [N11H] | 2.8 |
| RLLRFSSQIHNNGQSDFRPKNGRL [H24L] | 2.47 |
| RLLRFKSQIHNNGQSDFRPKNGRH [S6K] | 3.05 |
| RLLRFSSQIHNNGQSFFRPKNGRH [D16F] | 1.97 |
| RLLRFSSQIHNNGQSDTRPKNGRH [F17T] | 3.31 |
| RLLRFESQIHNNGQSDFRPKNGRH [S6E] | 3.62 |
| RLSRFSSQIHNNGQSDFRPKNGRH [L3S] | 3.77 |
| RLLRFSSQIHNNGQSDERPKNGRH [F17E] | 3.67 |
| RLLRFSSQILNNGQSDFRPKNGRH [H10L] | 2.14 |
| RLLRFSSQIHNNGQSDFRPKYGRH [N21Y] | 1.77 |
| RLLRFSSQIHNNGQSDQRPKNGRH [F17Q] | 3.42 |
| RLLCFSSQIHNNGQSDFRPKNGRH [R4C] | 2.87 |
| RALRFSSQIHNNGQSDFRPKNGRH [L2A] | 3.68 |
| RLLRFSSQIHNNGQSDFRPYNGRH [K20Y] | 2.23 |
| RLLRFSSQIHNNIQSDFRPKNGRH [G13I] | 2.31 |
